# TESTED ON: Serine/threonine-protein kinase PLK3 (Homo sapiens)
# Sequence (Q9H4B4 whole entry): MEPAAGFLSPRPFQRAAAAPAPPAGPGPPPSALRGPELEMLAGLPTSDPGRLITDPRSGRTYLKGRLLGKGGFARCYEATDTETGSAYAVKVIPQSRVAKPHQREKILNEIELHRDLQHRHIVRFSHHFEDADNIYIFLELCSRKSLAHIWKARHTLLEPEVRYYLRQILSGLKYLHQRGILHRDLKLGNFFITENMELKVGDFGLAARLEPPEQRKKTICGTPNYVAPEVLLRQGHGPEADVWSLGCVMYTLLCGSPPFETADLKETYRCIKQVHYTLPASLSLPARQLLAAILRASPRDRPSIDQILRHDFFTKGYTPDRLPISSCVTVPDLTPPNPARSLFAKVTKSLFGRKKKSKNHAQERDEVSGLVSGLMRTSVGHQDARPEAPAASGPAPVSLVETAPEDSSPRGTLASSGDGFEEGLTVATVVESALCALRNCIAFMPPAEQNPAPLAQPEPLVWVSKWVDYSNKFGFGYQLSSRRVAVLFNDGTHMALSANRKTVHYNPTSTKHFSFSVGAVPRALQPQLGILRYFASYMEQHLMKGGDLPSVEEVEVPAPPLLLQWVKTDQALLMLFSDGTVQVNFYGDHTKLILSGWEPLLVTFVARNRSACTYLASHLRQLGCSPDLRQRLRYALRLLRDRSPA
# PROTOCOL DETAILS: Inhibition of FITC-GPLATSpTPKNG-OH binding to Plk3 PBD (unknown origin) after 30 mins by fluorescence polarization assay
Square brackets hold non-standard residues; d marks the D form. Peptide text beside a SMILES is read from it. Phe(3,4-Cl2) = N[C@@H](Cc1ccc(Cl)c(Cl)c1)C(=O)O; Phe(4-F) = N[C@@H](Cc1ccc(F)cc1)C(=O)O; pT = C[C@@H](OP(=O)(O)O)[C@H](N)C(=O)O
MEASUREMENT KIND: IC50

>>> value_measured("CC[C@H](C)[C@H](NC(=O)[C@H](C)NC(=O)[C@@H](NC(=O)[C@H](CO)NC(=O)[C@H](Cc1cnc[nH]1)NC(=O)[C@H](CC(C)C)NC(=O)[C@@H]1CCCN1C(=O)[C@@H]1CCCN1C(=O)[C@H](CC(=O)O)NC(=O)[C@H](Cc1ccc(F)cc1)NC(=O)[C@@H](NC(=O)[C@H](CCC(N)=O)NC(C)=O)[C@@H](C)O)[C@@H](C)OP(=O)(O)O)C(=O)N[C@@H](Cc1ccc(O)cc1)C(=O)N[C@@H](C)C(=O)N[C@@H](CC(N)=O)C(N)=O (Ac-QT[Phe(4-F)]DPPLHS[pT]AIYAN-NH2)")
"Not Active"
>>> value_measured("CC[C@H](C)[C@H](NC(=O)[C@H](C)NC(=O)[C@@H](NC(=O)[C@H](CO)NC(=O)[C@H](Cc1cnc[nH]1)NC(=O)[C@H](CC(C)C)NC(=O)[C@@H]1CCCN1C(=O)[C@@H]1CCCN1C(=O)[C@H](CC(=O)O)NC(=O)[C@H](Cc1ccc(Cl)c(Cl)c1)NC(=O)[C@H](CCC(N)=O)NC(C)=O)[C@@H](C)O)C(=O)N[C@@H](Cc1ccc(O)cc1)C(=O)N[C@@H](C)C(=O)N[C@@H](CC(N)=O)C(N)=O (Ac-Q[Phe(3,4-Cl2)]DPPLHSTAIYAN-NH2)")
"Not Active"
>>> value_measured("CC[C@H](C)[C@H](NC(=O)[C@H](C)NC(=O)[C@@H](NC(=O)[C@H](CO)NC(=O)[C@H](Cc1cnc[nH]1)NC(=O)[C@H](CC(C)C)NC(=O)[C@@H]1CCCN1C(=O)[C@@H]1CCCN1C(=O)[C@H](CC(=O)O)NC(=O)[C@H](Cc1ccc(Cl)c(Cl)c1)NC(C)=O)[C@@H](C)OP(=O)(O)O)C(=O)N[C@@H](Cc1ccc(O)cc1)C(=O)N[C@@H](C)C(=O)N[C@@H](CC(N)=O)C(N)=O (Ac-[Phe(3,4-Cl2)]DPPLHS[pT]AIYAN-NH2)")
"Not Active"
